System: OVCAR-5 ovarian
MEASUREMENT PROTOCOL: NCI tumour cell line growth inhibition, 48 h; in the data active = GI50 below about 0.43 µM; inactive = the rest
Field 'call' accepts 1 = active, 0 = inactive

>  <COMPOUND>
N#CC1=C(N)Oc2c(sc3c(Br)cccc23)C1c1ccc(F)cc1 (stereo not drawn)

>  <ASSIGNED CLASS>
0

$$$$

[in] Which result was noted for this compound in the test: Cc1ccc(NCCNCC(O)CO)c2c(=O)c3ccccc3sc12 (stereo not drawn)
[out] 0

[in] Which result was noted for this compound in the test: "O=C1c2cc3c(cc2-c2c1c1cc(F)c(F)cc1c(=O)n2C[C@H](O)CO)OCO3"
[out] 1

[in] Which result was noted for this compound in the test: "Cc1cc2c(-c3nc4ccccn4c3NC34CC5CC(CC(C5)C3)C4)c(O)c(O)cc2c(O)c1-c1c(C)cc2c(-c3nc4ccccn4c3NC34CC5CC(CC(C5)C3)C4)c(O)c(O)cc2c1O"
[out] 0

[in] Which result was noted for this compound in the test: "COc1ccc(-c2cn(-c3cc(OC)c(OC)c(OC)c3)c(=O)n2-c2ccccc2)cc1"
[out] 0

[in] Which result was noted for this compound in the test: "CN1CCN(CCCOc2ccc3ncnc(Nc4ccc(Oc5cccc(F)c5)c(Cl)c4)c3c2)CC1"
[out] 0

[in] Which result was noted for this compound in the test: "Cc1ccc(-c2cc(C(Cl)Cl)on2)cc1"
[out] 0

[in] Which result was noted for this compound in the test: "Cc1nc2cc(Nc3nc(Nc4ccc(F)cc4)nc(-c4ccc(Cl)cc4)n3)ccc2n1Cc1ccccc1"
[out] 0

###

Tested on: UACC-257 melanoma
MEASUREMENT PROTOCOL: NCI tumour cell line growth inhibition, 48 h; in the data active means GI50 below about 0.43 µM; inactive means the rest
Field 'call' accepts active, inactive

Sample answers from the record:
>  <COMPOUND>
COc1cc(/C=C2\C(=O)Nc3ccc(Br)cc32)cc(OC)c1OC

>  <SYSTEM NAME>
UACC-257 melanoma

>  <ASSIGNED CLASS>
inactive

$$$$
>  <COMPOUND>
NC1(C(=O)O)CSSC1

>  <SYSTEM NAME>
UACC-257 melanoma

>  <ASSIGNED CLASS>
inactive

$$$$
>  <COMPOUND>
COc1ccc(-c2cn(-c3cc(OC)c(OC)c(OC)c3)c(=O)n2-c2ccccc2)cc1

>  <SYSTEM NAME>
UACC-257 melanoma

>  <ASSIGNED CLASS>
inactive

$$$$

[in] Which result was noted for this compound in the test: "Cc1ccc(-c2cc(C(Cl)Cl)on2)cc1"
[out] inactive

[in] Which result was noted for this compound in the test: CCCCCCCCCCCCCCCCCCNC(=O)[C@H]1CSC(c2ccc(F)c(OC)c2)N1 (stereo not given in full)
[out] inactive

[in] Which result was noted for this compound in the test: "O=C(Nc1nc2ccc(F)cc2s1)c1cccnc1Nc1ccc(Cl)cc1Cl"
[out] inactive

[in] Which result was noted for this compound in the test: "Cc1cc(Nc2cc(N3CCN(C)CC3)nc(C#Cc3ccccc3)n2)n[nH]1"
[out] inactive

[in] Which result was noted for this compound in the test: "CCc1ccc(OCc2ccccc2C(=O)Nc2ccc3nc(C)cc(N)c3c2)cc1"
[out] inactive

[in] Which result was noted for this compound in the test: "O=C(CCl)Nc1ccc(C(=O)N/N=C/c2ccc(Cl)cc2)cc1"
[out] inactive

###

System: SK-OV-3 ovarian
MEASUREMENT PROTOCOL: NCI tumour cell line growth inhibition, 48 h
The reader will find reported GI50 values listed item by item below.

>  <STRUCTURE SMILES STRING>
COc1ccc2c(c1)c(-c1cc(-c3cn(C)c4ccc(OC)cc34)[nH]n1)cn2C

>  <GI50>
> 100 µM

$$$$
>  <STRUCTURE SMILES STRING>
COc1ccc2nc3cc(Cl)ccc3c(Nc3ccc(O)c(CN4CCCC4)c3)c2c1

>  <GI50>
6.21 µM

$$$$
>  <STRUCTURE SMILES STRING>
Cc1cc(S(N)(=O)=O)c(S/C(=N\NS(=O)(=O)c2ccccc2)c2ccc(Cl)c(Cl)c2)cc1Cl

>  <GI50>
> 100 µM

$$$$

[in] What reported GI50 corresponds to "CCOC(=O)/N=c1\ssc(Cl)c1Cl" on SK-OV-3 ovarian?
[out] 20.6 µM

[in] What reported GI50 corresponds to "Cc1cc(C(=O)Nc2cc(Nc3ncccc3-c3ncnc4nc[nH]c34)ccc2F)cc(C(C)(C)C#N)c1" on SK-OV-3 ovarian?
[out] 26 µM

[in] What reported GI50 corresponds to "O=c1c2ccccc2c(=O)c2c1sc1c(=O)c3ccc(O)cc3c(=O)c12" on SK-OV-3 ovarian?
[out] 1.38 µM

[in] What reported GI50 corresponds to "CCOc1cccc(/C=N/NC(=O)Cc2ccc(Nc3ccnc(C(F)(F)F)c3)cc2)c1O" on SK-OV-3 ovarian?
[out] 3.3 µM

[in] What reported GI50 corresponds to "O=C(CCl)Nc1ccc(C(=O)N/N=C/c2ccc(Cl)cc2)cc1" on SK-OV-3 ovarian?
[out] 12.3 µM

###

The reader will find reported TGI values listed item by item below.
Tested on: DU-145 prostate
MEASUREMENT PROTOCOL: NCI tumour cell line growth inhibition, 48 h

Some solved cases for reference:
>  <COMPOUND>
O=C(O)C(Cc1c[nH]c2ccccc12)N1C(=O)c2ccccc2C1=O (stereo not given)

>  <REPORTED VALUE>
> 100 µM

$$$$
>  <COMPOUND>
CC(=O)N=S(NC(=O)c1ccc(C)cc1)C(Cl)(Cl)Cl (stereo not given)

>  <REPORTED VALUE>
> 100 µM

$$$$
>  <COMPOUND>
COc1ccccc1Cn1c2c(c3cc(O)ccc31)C(=O)c1ccccc1C2=O

>  <REPORTED VALUE>
> 100 µM

$$$$

[in] Data request, read-out TGI, for "COc1ccc2c(c1)-c1nc(=S)n(CCN(C)C)c3ccc([N+](=O)[O-])c(c13)N2"
[out] 2.93 µM

###

Tested on: K-562 leukemia
MEASUREMENT PROTOCOL: NCI tumour cell line growth inhibition, 48 h
ENDPOINT LABEL: TGI

>  <COMPOUND>
CC(C)(C)OC(=O)n1c(Cl)c(C(=O)N=C=S)c2ccccc21

>  <TGI>
> 100 µM

$$$$
>  <COMPOUND>
N=C(N)SCC(=O)O

>  <TGI>
> 100 µM

$$$$

[in] Data request, read-out TGI, for "COc1ccc(C(=O)/C=C/c2ccc(OCCCCCCCCCCOc3ccc(/C=C/C(=O)c4ccc(OC)c(OC)c4)cc3)cc2)c(OC)c1"
[out] > 100 µM

[in] Data request, read-out TGI, for "Nc1nc(Cl)cc(NCCCCCCNc2cc(Cl)nc(N)n2)n1"
[out] > 100 µM

[in] Data request, read-out TGI, for "Cn1c2ccccc2c2c3c(=O)[nH][nH]c(=O)c3c3c4ccccc4n(C)c3c21"
[out] > 100 µM

[in] Data request, read-out TGI, for Cc1ccc2c(C(C[N+](=O)[O-])c3ccco3)c(-c3ccccc3)[nH]c2c1 (stereo not given)
[out] > 100 µM

[in] Data request, read-out TGI, for "O=C1Nc2ccc(Br)cc2C1=Nc1ccc(Cl)cc1"
[out] 73.3 µM

[in] Data request, read-out TGI, for "C=C1c2ccccc2N(S(=O)(=O)c2ccc(C)cc2)C12CCCCC2"
[out] > 100 µM

[in] Data request, read-out TGI, for "O=C(NCCCn1ccnc1[N+](=O)[O-])C(=O)NCCCn1ccnc1[N+](=O)[O-]"
[out] > 100 µM

[in] Data request, read-out TGI, for "COc1ccc(CNC(=O)c2ccc(-c3cc(-c4nnc(C)o4)ccc3C)cc2)cc1"
[out] > 25 µM

###

The reader will find reported TGI values listed item by item below.
System: PC-3 prostate
MEASUREMENT PROTOCOL: NCI tumour cell line growth inhibition, 48 h

Some solved cases for reference:
>  <COMPOUND>
COc1cccc(C2CC(=O)Nc3cc4c(cc32)CCC4)c1OC (configuration not stated)

>  <TGI>
47.3 µM

$$$$
>  <COMPOUND>
O=C(O[C@@H](/C=C/c1ccccc1)P1(=O)N(Cc2ccccc2)[C@@H]2CCCC[C@H]2N1Cc1ccccc1)c1ccccc1

>  <TGI>
> 100 µM

$$$$
>  <COMPOUND>
Oc1ccc(C[C@@H]2CN[C@H](Cc3ccc(O)c(Br)c3)CN2)cc1

>  <TGI>
> 100 µM

$$$$
>  <COMPOUND>
COc1cc2c3cc1Oc1cc(ccc1O)C[C@@H]1c4c(cc(OC)c(O)c4Oc4ccc(cc4)C[C@@H]3[N+](C)(C)CC2)CC[N+]1(C)C

>  <TGI>
> 100 µM

$$$$
>  <COMPOUND>
COc1ccc2c(c1)CCC(CN1CCN(CCOC(c3ccccc3)c3ccccc3)CC1)C2O (configuration not stated)

>  <TGI>
26.3 µM

$$$$

[in] Data request, read-out TGI, for "O=C(Nc1cccc(Cl)c1)c1cc(Cl)ccc1O"
[out] > 25.2 µM

[in] Data request, read-out TGI, for Fc1cccc(F)c1C1SCc2nc3cc(Cl)ccc3n21 (configuration not stated)
[out] > 100 µM
